B1: glmS ribozyme (parent)
chain: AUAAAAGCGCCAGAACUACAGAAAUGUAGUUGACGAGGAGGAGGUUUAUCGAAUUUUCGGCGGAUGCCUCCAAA

- Variants of: B1
- Test: self-cleavage kobs at 10000 uM GlcN6P; higher = faster cleavage; RNA array
- Condition label: with glucosamine-6-phosphate
Fewer inactive variants are shown than the library holds.
Rule: 1.0 for self-cleavage kobs at 10000 uM GlcN6P not less than 0.0002 s⁻¹, 0.0 for anything less.

Examples with answers:
{"columns": ["Variant spec", "Assigned label"],
 "data": [
  ["G60A G66U", 0.0],
  ["C10A U31A C58G C67A", 0.0],
  ["A6C C68U", 0.0],
  ["C8A G29C U46A", 0.0],
  ["C11U U56C", 0.0]
]}

Check the entry C8A A33U : does self-cleavage kobs at 10000 uM GlcN6P equal or exceed 0.0002 s⁻¹?
0.0

Confirm if self-cleavage kobs at 10000 uM GlcN6P reported for the variant U30A A33G A48C C67A is 0.0002 s⁻¹ or above.
0.0

API: above_or_equal(metric=self-cleavage kobs at 10000 uM GlcN6P, cutoff=0.0002 s⁻¹) for item G7A U65C
0.0

Please tell me: is the variant U47G A48C at or over 0.0002 s⁻¹ in terms of self-cleavage kobs at 10000 uM GlcN6P?
0.0

# bool: self-cleavage kobs at 10000 uM GlcN6P of U30G G43C >= 0.0002 s⁻¹
0.0

State whether the measured self-cleavage kobs at 10000 uM GlcN6P reaches 0.0002 s⁻¹, counting equality as reaching it, for C16G U46G
1.0

Tell me whether self-cleavage kobs at 10000 uM GlcN6P is at least 0.0002 s⁻¹ here: A12U C50G G59U U69C
0.0
